Give measured pIC50 for each item. Keep answers brief.
test system: Radical scavenging activity; assay: Antioxidant activity assessed as DPPH radical scavenging activity; assay type: functional
One number for each entry, as −log10 of the molar value.

Study these solved cases before continuing.
compound | measured property | measurement
O=C(O)c1cc(O)c(O)c(O)c1 | pIC50 | 4.47
Cc1c(C)c2c(c(C)c1O)CCC(C)(C(=O)O)O2 (stereo not drawn) | pIC50 | 4.15

Note: attention shifts to another entry.
Problem: Give the reported pIC50 for CC(C)=CC[C@H]1C[C@]2(CC=C(C)C)C(=O)[C@@](CC=C(C)C)(C(=O)C(C(=O)c3ccccc3)=C2O)C1(C)C [6-EPI-CLUSIANONE] (system: Radical scavenging activity).
Result: 3.12
